The origin of these recorded values is patent US10865188B2.

assay-protocol: Guinea pig PK after transtympanic delivery (perilymph and cochlea, LC/MS/MS)
Type: in vivo
conditions: male, Hartley, cochlea, other: transtympanic, 30 μL, Crystalline form (Example 5(a)), 30 μL transtympanic, Day 14, LLOQ = 0.08 μM, read-out: Cochlea Average concentration
value-kind: concentration at 14 day
Express the reported value numerically, then name its unit.

Per the records, this molecule ( C[C@H](OC(=O)NCC(F)(F)C(F)(F)F)C(=O)N[C@@H]1C(=O)Nc2ccccc2-c2ccccc21 ) has concentration at 14 day equal to 9 µM

* * *

assay-protocol: Guinea pig PK after transtympanic delivery (perilymph and cochlea, LC/MS/MS)
Type: in vivo
conditions: male, Hartley, cochlea, other: transtympanic, 30 μL, Crystalline form (Example 5(a)), 30 μL transtympanic, Day 3, LLOQ = 0.08 μM, read-out: Cochlea Average concentration
value-kind: concentration at 3 day (µM)
All answers are understood in µM, so give the number only.

Per the records, this molecule ( C[C@H](OC(=O)NCC(F)(F)C(F)(F)F)C(=O)N[C@@H]1C(=O)Nc2ccccc2-c2ccccc21 ) has concentration at 3 day equal to 25.6
